Reference for the values: patent US20240116985A1

# TEST_SYSTEM: full-length beta-Catenin (Uniprot ID P35222) (Homo sapiens (Human)) (UniProt P35222)
# ASSAY_REMARKS: fluorescence polarization competition vs 5FAM-TCF4(10-53) on full-length beta-catenin
Starred links: 1 amine or outer side, 2 acyl side, 3 side chain; linkers in the order of their positions; H or OH if unused. Positions of bridges follow the written chain, without caps; N, C: chain ends. Non-standard residues stand in square brackets, D forms with d. Primed or numbered codes have the meaning given here. PyrS2″ = (S)-3-amino-1-((pent-4-en-1-yloxy)carbonyl)pyrrolidine-3-carboxylic acid (stapling residue), C=CCCCOC(=O)N1CC[C@@](N[*:1])(C(=O)[*:2])C1; B5(30) = 2-amino-2-(pent-4-en-1-yl)hept-6-enoic acid (2,2-bis(4-pentenyl)glycine, stitching residue), C=CCCCC(CCCC=C)(N[*:1])C(=O)[*:2]; B5(4) = 2,2-bis(4-pentenyl)glycine = 2-amino-2-(pent-4-en-1-yl)hept-6-enoic acid (stitching residue), C=CCCCC(CCCC=C)(N[*:1])C(=O)[*:2]; Phe(4-COOH) = N[C@@H](Cc1ccc(C(=O)O)cc1)C(=O)O; Phe(2-Cl) = N[C@@H](Cc1ccccc1Cl)C(=O)O; Bta = N[C@@H](Cc1csc2ccccc12)C(=O)O; αAllylPro = C=CC[C@@]1(C(=O)O)CCCN1; tBuAla = CC(C)(C)C[C@H](N)C(=O)O; 3Thi = N[C@@H](Cc1ccsc1)C(=O)O; Cha = N[C@@H](CC1CCCCC1)C(=O)O; S8 = C=CCCCCCC[C@](C)(N)C(=O)O
MEASUREMENT_NAME: IC50 (nM)

>>> test_result("Ac-[αAllylPro]D[Cha][B5(4)]DDLAFT[PyrS2″][Phe(2-Cl)][Bta]S-NH2 (staple 1-4, 4-11) [I-1150]")
12
>>> test_result("Ac-[αAllylPro]DA[B5(4)]DDAAFV[S8][Phe(4-COOH)][Bta]Q-NH2 (staple 1-4, 4-11; also: earlier-eluting staple isomer) [I-339]")
5000

A: Ac-[αAllylPro]D[Cha][B5(4)]DDALFS[PyrS2″][Phe(2-Cl)][Bta]Q-NH2 (staple 1-4, 4-11) [I-1148]
B: Ac-[αAllylPro]D[tBuAla][B5(30)]NTAAFN[PyrS2″][3Thi][Bta]V-NH2 (staple 1-4, 4-11; also: later-eluting HPLC isomer) [I-1879]
Query block: Given A and B , report the one with the higher recorded IC50. Pick one; state its label.
Result block: B
(B: 567 nM, A: 50 nM)
